Assay: In vitro cytotoxicity by MTT assay, HEK 293
Type: cell-based, human
Conditions: human, HEK 293 cells, 3.7 μM, read-out: % cytotoxicity (100 − % cell survival) of HEK 293 cell line
property_measured: cytotoxicity at 72 h, 3.7 µM (%)
Numeric answer only, unit % assumed.

Using known records, supply cytotoxicity at 72 h, 3.7 µM for CN(C)c1ccc(C=Nc2nnc(S(=O)(=O)NC(=O)c3ccccc3)s2)cc1
35.7

Using known records, supply cytotoxicity at 72 h, 3.7 µM for CC(=O)Nc1ccc(S(=O)(=O)Nc2nnc(S(=O)(=O)NC(=O)c3ccccc3O)s2)cc1
38.4

Using known records, supply cytotoxicity at 72 h, 3.7 µM for CC(=O)Nc1ccc(S(=O)(=O)Nc2nnc(S(=O)(=O)NC(=O)c3ccc([N+](=O)[O-])cc3)s2)cc1
49.1

Using known records, supply cytotoxicity at 72 h, 3.7 µM for Nc1ccc(S(=O)(=O)Nc2nnc(S(=O)(=O)NC(=O)c3ccc([N+](=O)[O-])cc3)s2)cc1
36.4

Using known records, supply cytotoxicity at 72 h, 3.7 µM for Nc1nnc(S(=O)(=O)NC(=O)c2ccc(Cl)cc2)s1
46.4

Using known records, supply cytotoxicity at 72 h, 3.7 µM for Nc1nnc(S(=O)(=O)NC(=O)c2ccccc2)s1
28.9

Using known records, supply cytotoxicity at 72 h, 3.7 µM for Nc1ccc(C(=O)NS(=O)(=O)c2nnc(NS(=O)(=O)c3ccc(N)cc3)s2)cc1
47.1

Using known records, supply cytotoxicity at 72 h, 3.7 µM for CC(=O)Nc1ccc(S(=O)(=O)Nc2nnc(S(=O)(=O)NC(=O)c3ccccc3N)s2)cc1
44

---

Assay: In vitro cytotoxicity by MTT assay, NCI-H226
Type: cell-based
Details: human, NCI-H226 lung cancer cells, 0.015 μM, read-out: % Cytotoxicity (100 − % cell survival) of NCI-H226 cell line
property_measured: cytotoxicity at 72 h, 0.015 µM
# include the unit after the value

Using known records, supply cytotoxicity at 72 h, 0.015 µM for CC(=O)Nc1ccc(S(=O)(=O)Nc2nnc(S(=O)(=O)NC(=O)c3ccccc3O)s2)cc1
36.4%

Using known records, supply cytotoxicity at 72 h, 0.015 µM for Nc1ccc(S(=O)(=O)Nc2nnc(S(=O)(=O)NC(=O)c3ccc([N+](=O)[O-])cc3)s2)cc1
30%

Using known records, supply cytotoxicity at 72 h, 0.015 µM for Nc1nnc(S(=O)(=O)NC(=O)c2ccccc2O)s1
35.1%

Using known records, supply cytotoxicity at 72 h, 0.015 µM for CC(=O)Nc1ccc(S(=O)(=O)Nc2nnc(S(=O)(=O)NC(=O)c3ccccc3)s2)cc1
31.6%

---

Experiment: In vitro cytotoxicity by MTT assay, HEK 293
Assay type: cell-based, human
Conditions: human, HEK 293 cells, 100 μM, read-out: % cytotoxicity (100 − % cell survival) of HEK 293 cell line
Description: The cancer cell line cultures of HEK 293 ([…]), BT474 (breast cancer cell line) and NCI-H226 (lung cancer) were obtained from Pasteur Institute of India, Coonoor, India, and were cultured in RPMI-1640 and 10 % heat-[…] New born calf serum with antibiotics [penicillin ([…]), streptomycin (100 μg/mL) and amphotericin B (25 μg/mL)]. The cells were maintained at 37 °C in a humidified atmosphere with 5 % CO2 and were subcultured twice a week. […]
property_measured: cytotoxicity at 72 h, 100 µM (%)
Numeric answer only, unit % assumed.

Using known records, supply cytotoxicity at 72 h, 100 µM for CC(=O)Nc1ccc(S(=O)(=O)Nc2nnc(S(=O)(=O)NC(=O)c3cccc([N+](=O)[O-])c3)s2)cc1
62.4

Using known records, supply cytotoxicity at 72 h, 100 µM for Nc1nnc(S(=O)(=O)NC(=O)c2ccccc2N)s1
65.4

Using known records, supply cytotoxicity at 72 h, 100 µM for Nc1ccc(C(=O)NS(=O)(=O)c2nnc(N)s2)cc1
49.1

Using known records, supply cytotoxicity at 72 h, 100 µM for CC(=O)Nc1ccc(S(=O)(=O)Nc2nnc(S(=O)(=O)NC(=O)c3ccc([N+](=O)[O-])cc3)s2)cc1
55

Using known records, supply cytotoxicity at 72 h, 100 µM for Nc1nnc(S(=O)(=O)NC(=O)c2cccc([N+](=O)[O-])c2)s1
32

Using known records, supply cytotoxicity at 72 h, 100 µM for Nc1ccc(S(=O)(=O)Nc2nnc(S(=O)(=O)NC(=O)c3ccccc3)s2)cc1
35.7

Using known records, supply cytotoxicity at 72 h, 100 µM for Nc1ccc(S(=O)(=O)Nc2nnc(S(=O)(=O)NC(=O)c3ccc(Cl)cc3)s2)cc1
42.9

Using known records, supply cytotoxicity at 72 h, 100 µM for Nc1ccc(S(=O)(=O)Nc2nnc(S(=O)(=O)NC(=O)c3cccc([N+](=O)[O-])c3)s2)cc1
43.8

Using known records, supply cytotoxicity at 72 h, 100 µM for COc1ccccc1C=Nc1nnc(S(=O)(=O)NC(=O)c2ccccc2)s1
52.3

Using known records, supply cytotoxicity at 72 h, 100 µM for CN(C)c1ccc(C=Nc2nnc(S(=O)(=O)NC(=O)c3ccccc3)s2)cc1
37.6

Using known records, supply cytotoxicity at 72 h, 100 µM for Nc1ccc(C(=O)NS(=O)(=O)c2nnc(NS(=O)(=O)c3ccc(N)cc3)s2)cc1
49.9

Using known records, supply cytotoxicity at 72 h, 100 µM for NS(=O)(=O)c1ccc(S(=O)(=O)Nc2cccc3c(Cl)c[nH]c23)cc1 [ISL, indisulam, reference compound]
69.4

Using known records, supply cytotoxicity at 72 h, 100 µM for CC(=O)Nc1ccc(S(=O)(=O)Nc2nnc(S(=O)(=O)NC(=O)c3ccc(Cl)cc3)s2)cc1
32

Using known records, supply cytotoxicity at 72 h, 100 µM for Nc1nnc(S(=O)(=O)NC(=O)c2ccccc2)s1
33

Using known records, supply cytotoxicity at 72 h, 100 µM for O=C(NS(=O)(=O)c1nnc(N=Cc2ccc(O)cc2)s1)c1ccccc1
39.6

Using known records, supply cytotoxicity at 72 h, 100 µM for Nc1ccc(S(=O)(=O)Nc2nnc(S(=O)(=O)NC(=O)c3ccccc3O)s2)cc1
29.6

Using known records, supply cytotoxicity at 72 h, 100 µM for COc1cc(C=Nc2nnc(S(=O)(=O)NC(=O)c3ccccc3)s2)ccc1O
38.6
